Data provenance is PubChem BioAssay AID493228.

# test.name: HRE-luciferase activation under added iron, dose response, mechanism study for HIF activator project, cell-based, iron medium, luminescence, U2OS, dry powder (AID 493228)
# assay.context: U2OS HRE-luciferase reporter, iron medium, luminescence; at 38 µM (top of the series)
Results filed as inconclusive are left out.
measured.metric: activation (%)
One number for each entry, in %.

Recorded activation, per entry:
>>> val("CC(C)(C)OC(=O)N1CCN(Cc2ccc(O)c3ncccc23)CC1")
10.8
>>> val("O=C(Nc1ccc2ccccc2n1)c1cc(-c2ccccc2)on1")
10.3
>>> val("CN(C)CCNC(=O)c1cc(-c2ccccc2)on1")
36.8
>>> val("Cc1ccc(Nc2nc(-c3ccccn3)nnc2-c2ccccc2)cn1")
473
>>> val("O=C(Nc1ncc(-c2ccccc2)o1)c1cc(-c2ccccc2)on1")
22.7

Below are 4 compounds. Give each one its activation.
1. c1ccc(-c2nnc(-c3ccccn3)nc2Nc2nc3ccccc3s2)cc1
2. CN1CCN(c2nc(-c3ccccn3)nnc2-c2ccccc2)CC1
3. OCCCNc1nc(-c2ccccn2)nnc1-c1ccccc1
4. CC(C)(C)c1ccc(CNc2nc(-c3ccccn3)nnc2-c2ccccc2)cc1

(A)
[-17.3, 315, 310, 246]

Below are 2 compounds. Give each one its activation.
1. c1ccc(-c2nnc(-c3ccccn3)nc2NCCc2ccccn2)cc1
2. Cn1c(-c2ccccc2)cnc1Nc1nc(-c2ccccn2)nnc1-c1ccccc1

(A)
[460, -7.02]

Below are 3 compounds. Give each one its activation.
1. c1ccc(-c2nnc(-c3ccccn3)nc2NCC2CC2)cc1
2. O=C(NCCN1CCCCC1)c1cc(-c2ccccc2)on1
3. c1ccc(-c2cccc(CNc3nc(-c4ccccn4)nnc3-c3ccccc3)c2)cc1

(A)
1. 392
2. 64.1
3. 113

---

# test.name: HRE-luciferase activation under added iron, dose response, mechanism study for HIF activator project, cell-based, iron medium, luminescence, U2OS, dry powder (AID 493228)
# assay.context: U2OS HRE-luciferase reporter, iron medium, luminescence; at 38 µM (top of the series)
Results filed as inconclusive are left out. The source made the active and inactive calls.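 The calls were made as follows: active = fitted dose curve passes 500% activation at or below the top valid tested dose; inconclusive = no clear call, values can overlap the other calls; inactive = the rest, opposite-direction activity included.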
measured.metric: activation

Recorded activation, per entry:
>>> val("c1ccc(-c2nnc(-c3ccccn3)nc2N2CCC(C3CCCCC3)C2)cc1 (stereo not given)")
"17.7% (inactive)"
>>> val("O=C(Nc1ncc2ccccc2n1)c1cc(-c2ccccc2)on1")
"196% (inactive)"
>>> val("c1ccc(-c2cnc(Nc3nc(-c4ccccn4)nnc3-c3ccccc3)s2)cc1")
"-26.9% (inactive)"

Below are 5 molecules. Give each one its activation.
1. Oc1ccc(CNC2CCc3ccccc32)c2cccnc12 (stereo not given)
2. Oc1ccc(CN2CCC3CCCCC3C2)c2cccnc12 (stereo not given)
3. CN1CCN(C(=O)c2cc(-c3ccccc3)on2)CC1
4. Oc1ccc(CNC2Cc3ccccc3C2)c2cccnc12
5. O=C(NC1CCc2ccccc2C1)c1cc(-c2ccccc2)on1 (stereo not given)

(A)
-90.3% (inactive)
-92.3% (inactive)
4.95% (inactive)
-87.7% (inactive)
2.06% (inactive)

Below are 2 molecules. Give each one its activation.
1. Cn1c(NC(=O)c2cc(-c3ccccc3)on2)nc2ccccc21
2. COc1ccccc1N1CCN(Cc2ccc(O)c3ncccc23)CC1

(A)
["4.17% (inactive)", "-77.4% (inactive)"]
